These data points were gathered from patent US20240366589A1.

- system: Human NHE3 (Homo sapiens, UniProt P48764)
- Construct: expressed in transfected cells; host or cells: Opossum kidney (OK) cells (ATCC), electroporation
- assay-comment: Cell-based NHE3 activity under prompt conditions (OK cells, BCECF pH recovery), human NHE3
- condition-summary: prompt conditions
observation-type: Prompt Human NHE3 pIC50

Q. Report Prompt Human NHE3 pIC50 for CCC(=O)NC(CCC(=O)NCCOCCOCCOCCNS(=O)(=O)c1cccc([C@@H]2CN(C)Cc3c(Cl)cc(Cl)cc32)c1)(CCC(=O)NCCOCCOCCOCCNS(=O)(=O)c1cccc([C@@H]2CN(C)Cc3c(Cl)cc(Cl)cc32)c1)CCC(=O)NCCOCCOCCOCCNS(=O)(=O)c1cccc([C@@H]2CN(C)Cc3c(Cl)cc(Cl)cc32)c1 please.
A. 7.90

Q. Dear colleague, I am looking for the recorded Prompt Human NHE3 pIC50 of the following molecule: N[C@@H]1CCCN([C@H]2Cc3c(Cl)cc(Cl)cc3[C@@H]2Oc2ccc(S(=O)(=O)NCCOCCOCCNC(=O)NCCCCNC(=O)NCCOCCOCCNS(=O)(=O)c3ccc(O[C@H]4c5cc(Cl)cc(Cl)c5C[C@@H]4N4CCC[C@@H](N)C4)cc3)cc2)C1
A. 8.45

Q. Give the measured Prompt Human NHE3 pIC50 of N=C(N)Nc1nc(-c2ccc(N3CCN(CCOCCOCCOCCNC(=O)CCOCCOCCOCCOCCOCCC(=O)NCCOCCOCCOCCN4CCN(c5ccc(-c6nc(NC(=N)N)nc7ccc(Cl)cc67)cc5)CC4)CC3)cc2)c2cc(Cl)ccc2n1 .
A. 8.58

Q. Give the measured Prompt Human NHE3 pIC50 of N=C(N)Nc1nc(-c2ccc(N3CCN(CCOCCOCCOCCNC(=O)NCCOCCOCCNC(=O)NCCOCCOCCOCCN4CCN(c5ccc(-c6nc(NC(=N)N)nc7ccc(Cl)cc67)cc5)CC4)CC3)cc2)c2cc(Cl)ccc2n1 .
A. 7.20

====

Kindly supply the reported Prompt Human NHE3 pIC50 values for the records listed here.
- system: Human NHE3 (Homo sapiens, UniProt P48764)
- Construct: expressed in transfected cells; host or cells: Opossum kidney (OK) cells (ATCC), electroporation
- Sequence (P48764 26-834): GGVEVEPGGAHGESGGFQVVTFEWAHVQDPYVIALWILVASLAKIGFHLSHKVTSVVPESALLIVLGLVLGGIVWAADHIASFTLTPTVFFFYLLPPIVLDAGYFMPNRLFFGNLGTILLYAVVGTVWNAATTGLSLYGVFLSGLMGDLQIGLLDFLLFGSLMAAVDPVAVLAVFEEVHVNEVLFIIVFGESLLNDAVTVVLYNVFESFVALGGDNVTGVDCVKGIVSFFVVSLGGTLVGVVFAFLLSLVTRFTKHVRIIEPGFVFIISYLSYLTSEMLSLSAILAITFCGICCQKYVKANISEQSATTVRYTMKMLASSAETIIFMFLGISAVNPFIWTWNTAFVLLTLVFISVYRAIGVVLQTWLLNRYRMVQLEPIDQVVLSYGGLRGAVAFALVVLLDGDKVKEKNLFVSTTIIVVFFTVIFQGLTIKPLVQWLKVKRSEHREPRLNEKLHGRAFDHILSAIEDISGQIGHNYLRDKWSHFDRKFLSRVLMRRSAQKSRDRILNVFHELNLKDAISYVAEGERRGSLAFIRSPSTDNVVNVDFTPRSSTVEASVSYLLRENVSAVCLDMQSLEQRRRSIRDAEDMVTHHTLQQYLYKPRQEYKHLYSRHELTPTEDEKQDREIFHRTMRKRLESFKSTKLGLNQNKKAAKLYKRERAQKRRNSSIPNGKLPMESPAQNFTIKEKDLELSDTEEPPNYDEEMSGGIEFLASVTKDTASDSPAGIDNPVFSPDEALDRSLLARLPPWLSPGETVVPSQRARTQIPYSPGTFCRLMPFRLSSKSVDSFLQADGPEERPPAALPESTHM
- assay-comment: Cell-based NHE3 activity under prompt conditions (OK cells, BCECF pH recovery), human NHE3
- condition-summary: prompt conditions
# output: bare number, no unit

Q. Returns the measured Prompt Human NHE3 pIC50 for the input compound. Input: O=C(NCCCCNC(=O)NCCOCCOCCNS(=O)(=O)c1ccc(O[C@H]2c3cc(Cl)cc(F)c3C[C@@H]2N2CC[C@@H](O)C2)cc1)NCCOCCOCCNS(=O)(=O)c1ccc(O[C@H]2c3cc(Cl)cc(F)c3C[C@@H]2N2CC[C@@H](O)C2)cc1
A. 8.20

Q. # lookup: Prompt Human NHE3 pIC50 of C/C(=C\c1cc(F)c(Oc2ccc(S(=O)(=O)NCCOCCOCCOCCNC(=O)NCCOCCOCCNC(=O)NCCOCCOCCOCCNS(=O)(=O)c3ccc(Oc4c(F)cc(/C=C(\C)C(=O)N=C(N)N)cc4F)cc3)cc2)c(F)c1)C(=O)N=C(N)N
A. 7.60

Q. Form field: reported Prompt Human NHE3 pIC50 of CN1Cc2c(Cl)cc(Cl)cc2[C@H](c2cccc(S(=O)(=O)NCCOCCOCCNC(=O)CCC(=O)NCCOCCOCCNS(=O)(=O)c3ccc(O[C@H]4c5ccccc5C[C@@H]4N4CCCCC4)cc3)c2)C1
A. 8.30

Q. # get_value(readout='Prompt Human NHE3 pIC50', item= NCCOCCOCCNS(=O)(=O)c1ccc(O[C@H]2c3ccccc3C[C@@H]2N2CCCCC2)cc1 )
A. 7.10

Q. Which Prompt Human NHE3 pIC50 value belongs to CN1Cc2c(Cl)cc(Cl)cc2[C@H](c2cccc(S(=O)(=O)NCCOCCOCCNC(=O)CN(CCN(CC(=O)O)CC(=O)NCCOCCOCCNS(=O)(=O)c3cccc([C@@H]4CN(C)Cc5c(Cl)cc(Cl)cc54)c3)CC(=O)O)c2)C1 ?
A. 7.90

====

- Test system: phosphorus and calcium levels in the urine of rats
- assay-comment: Urinary excretion of phosphate and calcium in rats (16 h overnight urine)
- Assay type: in vivo, rat
- condition-summary: rats, oral gavage, dose 10 mg/kg, 16 h post-dose
observation-type: Urine P % of control (%)
Number in %, nothing else.

Q. # get_value(readout='Urine P % of control', item= CN(CC(=O)NCCOCCOCCOCCN1CCN(c2ccc(-c3nc(NC(=N)N)nc4ccc(Cl)cc34)cc2)CC1)CC(=O)NCCOCCOCCOCCN1CCN(c2ccc(-c3c(Cl)ccc4nc(NC(=N)N)ncc34)cc2)CC1 )
A. 101

Q. I'd like to know its Urine P % of control. The compound in question is C=CC(=O)NCCOCCOCCOCCNS(=O)(=O)c1cccc([C@@H]2CN(C)Cc3c(Cl)cc(Cl)cc32)c1
A. 62

Q. State the recorded Urine P % of control for this entry: O=C(NCCOCCOCCNS(=O)(=O)c1ccc(O[C@H]2c3ccccc3C[C@@H]2N2CCCCC2)cc1)[C@H](O)[C@@H](O)C(=O)NCCOCCOCCNS(=O)(=O)c1ccc(O[C@H]2c3ccccc3C[C@@H]2N2CCCCC2)cc1
A. 88

Q. Tell me the measured Urine P % of control of C/C(=C\c1cc(F)c(Oc2ccc(S(=O)(=O)NCCOCCOCCOCCNC(=O)[C@H](O)[C@@H](O)C(=O)NCCOCCOCCOCCNS(=O)(=O)c3ccc(Oc4c(F)cc(/C=C(\C)C(=O)N=C(N)N)cc4F)cc3)cc2)c(F)c1)C(=O)N=C(N)N , please.
A. 65

Q. Reported Urine P % of control for CN1Cc2c(Cl)cc(Cl)cc2[C@H](c2cccc(S(=O)(=O)NCCOCCOCCNC(=O)CCN(CCC(=O)NCCOCCOCCNS(=O)(=O)c3cccc([C@@H]4CN(C)Cc5c(Cl)cc(Cl)cc54)c3)CCC(=O)NCCOCCOCCNS(=O)(=O)c3cccc([C@@H]4CN(C)Cc5c(Cl)cc(Cl)cc54)c3)c2)C1 : what is it?
A. 21

Q. Name the recorded Urine P % of control for NC(N)=Nc1nc(-c2cccc(N3CCN(CCOCCOCCNC(=O)NCCOCCOCCNC(=O)NCCCCNC(=O)NCCOCCOCCNC(=O)NCCOCCOCCN4CCN(c5cccc(-c6nc(N=C(N)N)nc7ccc(Cl)cc67)c5)CC4)CC3)c2)c2cc(Cl)ccc2n1 .
A. 129

Q. Reported Urine P % of control for NCCOCCOCCOc1cccc(-c2nc(N=C(N)N)nc3ccc(Cl)cc23)c1 : what is it?
A. 80

Q. Query: Urine P % of control; subject: CN(CC(=O)NCCOCCOCCNC(=O)NCCOCCOCCN1CCN(c2cccc(-c3nc(NC(=N)N)nc4ccc(Cl)cc34)c2)CC1)CC(=O)NCCOCCOCCNC(=O)NCCOCCOCCN1CCN(c2cccc(-c3nc(NC(=N)N)nc4ccc(Cl)cc34)c2)CC1
A. 117

Q. Given the entry CN1Cc2c(Cl)cc(Cl)cc2[C@H](c2cccc(S(=O)(=O)NCCOCCOCCOCCNC(=O)COCC(=O)NCCOCCOCCOc3cccc(-c4nc(NC(=N)N)nc5ccc(Cl)cc45)c3)c2)C1 , report its measured Urine P % of control.
A. 150
